- procedure text: Stat Signaling Pathway (AID 446);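 also: ME-180 cervical cancer cells given 40 pM IL-6 alongside compound; SIE-controlled beta-lactamase reporter measured as 460/530 nm FRET emission ratio; % is scaled to controls: 0 for no effect and ±100 for the full control effect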
- measurement conditions: ME-180 (cervical carcinoma) SIE beta-lactamase reporter, IL-6 stimulated, 5 h; series mostly up to 7.69 µM
- Experimental: NCGC Assay Overview: The IL-6/STAT signaling pathway was assayed in ME-180 cervical carcinoma cells by a beta-lactamase reporter gene controlled by a STAT Inducible Element (SIE). This reporter is induced by IL-6 at 40 pM AC50 and inhibited by the pan JAK inhibitor, 2-(1,1-Dimethylethyl)-9-fluoro-3,6-dihydro-7H-benz[h]-imidaz[4,5-f]isoquinolin-7-one, at approximately 10 nM AC50. Plated cells were incubated overnight and on the following day, stimulated with 40 pM IL-6 for 5 hrs. […]
Results filed as inconclusive are left out. Active and inactive are the calls of the source. Calls follow the shape of the dose curve; as a rule, active = well fitted curve in either direction with a large enough effect (not every such curve was filed as active); inconclusive = small, poorly fitted or top-dose-only effect, or another doubt; inactive = flat fitted curve, though single readings scatter.
reported property: outcome

Check out these entries, answers already filled in.
> print(dat)
                                   compound  data.value
1          COc1cccc(-c2cncnc2NCCN2CCOCC2)c1    inactive
2  COCCn1c(=O)c(-c2cccc(C#N)c2)nc2cnc(Oc3cccc(Cl)c3)nc21    inactive
3                   O=C(/C=N/O)NCCCN1CCOCC1    inactive
4      COc1ccccc1-c1nc(Nc2ccncc2)c2ccccc2n1    inactive
5  COc1ccc2[nH]cc(CCNc3ncnc4ccc(-c5cccc(C#N)c5)cc34)c2c1    inactive

Quick note, outcome for `COc1ccccc1-c1nc(N2CCN(C)CC2)c2ccccc2n1` landed at inactive

Quick note, outcome for `COc1ccccc1-c1ccc2ncnc(N3CCOCC3)c2c1` landed at inactive

Quick note, outcome for `CN(C)c1nc(-c2ccc3c(c2)OCO3)nc2ccccc12` landed at inactive

Quick note, outcome for `CC(=O)NCCNc1nc(-c2cccc(C#N)c2)nc2ccccc12` landed at inactive

Quick note, outcome for CN1CC=C2C(C#N)=C(N)C(C#N)(C#N)[C@H](c3cccc(Cl)c3)C2C1 (some centres not stated) landed at inactive

Quick note, outcome for `COc1ccccc1-c1ccc2ncnc(N3CCNCC3)c2c1` landed at inactive

Quick note, outcome for `COc1ccccc1CNc1ncncc1-c1ccc2c(c1)OCO2` landed at inactive

---

- subject of test: Rap guanine nucleotide exchange factor 3 (Homo sapiens) (UniProt O95398)
- Sequence (O95398 whole entry, looked up): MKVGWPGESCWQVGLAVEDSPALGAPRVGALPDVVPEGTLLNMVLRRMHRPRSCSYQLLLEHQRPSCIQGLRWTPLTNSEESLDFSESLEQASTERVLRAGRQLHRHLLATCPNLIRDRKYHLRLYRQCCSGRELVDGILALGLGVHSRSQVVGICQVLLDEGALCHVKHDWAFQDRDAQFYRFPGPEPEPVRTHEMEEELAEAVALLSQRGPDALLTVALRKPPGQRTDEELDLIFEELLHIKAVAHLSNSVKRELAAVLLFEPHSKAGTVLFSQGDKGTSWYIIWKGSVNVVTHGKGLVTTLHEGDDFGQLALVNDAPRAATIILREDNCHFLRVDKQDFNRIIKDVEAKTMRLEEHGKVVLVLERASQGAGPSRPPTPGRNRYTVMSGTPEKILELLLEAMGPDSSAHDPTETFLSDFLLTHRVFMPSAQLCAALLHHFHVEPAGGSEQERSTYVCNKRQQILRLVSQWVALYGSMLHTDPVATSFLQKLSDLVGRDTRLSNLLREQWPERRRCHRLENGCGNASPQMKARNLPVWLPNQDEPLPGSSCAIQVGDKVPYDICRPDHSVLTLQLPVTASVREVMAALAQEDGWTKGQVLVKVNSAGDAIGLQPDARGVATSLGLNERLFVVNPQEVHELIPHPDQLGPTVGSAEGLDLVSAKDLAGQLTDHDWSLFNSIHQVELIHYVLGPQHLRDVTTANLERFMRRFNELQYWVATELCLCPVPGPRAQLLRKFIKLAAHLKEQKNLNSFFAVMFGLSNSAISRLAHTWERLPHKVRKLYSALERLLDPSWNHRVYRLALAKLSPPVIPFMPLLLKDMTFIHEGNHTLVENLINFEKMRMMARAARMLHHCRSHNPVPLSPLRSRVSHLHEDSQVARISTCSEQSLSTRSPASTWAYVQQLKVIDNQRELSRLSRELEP
- procedure text: Counterscreen qHTS for antagonist of cAMP-regulated guanine nucleotide exchange factor 3 (EPAC1) (AID 1645888);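 also: fluorescence loss as bound BODIPY-GDP is released from Rap1B; % of control where 0% means no effect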
- measurement conditions: Rap1B-BODIPY-GDP nucleotide exchange, fluorescence; series mostly up to 154 µM
- From the text: Assay Provider (PI): Xiaodong Cheng Ph.D. The University of Texas Medical Branch, […], TX MLPCN Grant: NS066510 In multi-cellular eukaryotic organisms, the effects of cAMP are transduced by two ubiquitously-expressed intracellular cAMP receptors, the classic protein kinase A/cAMP-dependent protein kinase (PKA/cAPK) and the more recently discovered exchange protein directly activated by cAMP/cAMP-regulated guanine nucleotide exchange factor (EPAC/cAMP-GEF). […]
Records with an inconclusive call do not appear. Activity calls are given as the source filed them. Calls follow the shape of the dose curve; as a rule, active = well fitted inhibition curve with a large enough effect; inconclusive = small, poorly fitted or top-dose-only effect; inactive = no such curve, though single readings can be large or run the other way.
reported property: activity change, negative = inhibition

> print(dat)
                                   compound                       reported.property                      data.value
1  COc1ccccc1CN(C(=O)CNC(=O)c1ccco1)C(C(=O)NCC1CCCO1)c1ccc(OC)c(OC)c1 (stereo not given)  activity change, negative = inhibition                        inactive
2  CCOc1cc(/C=N/NC(=O)CSc2nncn2C)ccc1OC(=O)c1ccc(Cl)cc1  activity change, negative = inhibition  0.431% [at 30.8 µM] (inactive)
3  CCN1CCc2c(sc(NC(=O)CSc3ccccc3)c2-c2nc3ccccc3s2)C1  activity change, negative = inhibition                        inactive
4  COC(=O)[C@@H](NC(=O)Nc1ccc2c(c1)OCCO2)C(C)C  activity change, negative = inhibition                        inactive

Please examine the following record next.
Quick note, activity change, negative = inhibition for CCC(=O)OC1CC(C)N(C(=O)c2ccccc2)c2ccc(C)cc21 (stereo not given) landed at inactive

---

- subject of test: Rap guanine nucleotide exchange factor 3 (Homo sapiens)
- procedure text: Counterscreen qHTS for antagonist of cAMP-regulated guanine nucleotide exchange factor 3 (EPAC1) (AID 1645888);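 also: fluorescence loss as bound BODIPY-GDP is released from Rap1B; % of control where 0% means no effect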
- measurement conditions: Rap1B-BODIPY-GDP nucleotide exchange, fluorescence; series mostly up to 154 µM
Inconclusive results are not listed. Active and inactive are the calls of the source. The call rests on the fitted dose curve; in most records, active means well fitted inhibition curve with a large enough effect; inconclusive means small, poorly fitted or top-dose-only effect; inactive means no such curve, though single readings can be large or run the other way.
reported property: activity change, negative = inhibition

Check out these entries, answers already filled in.
> print(dat)
                                   compound                           subject.of.test                      data.value
1  Cc1ccc(NC(=O)c2sc3nc(-c4cc5ccccc5oc4=O)[nH]c(=O)c3c2C)c(C)c1  Rap guanine nucleotide exchange factor 3 (Homo sapiens)                        inactive
2  CCc1nc2c(OCc3ccc(C(F)(F)F)cc3)cccn2c1N(C)C(=O)c1ccc(C)cc1  Rap guanine nucleotide exchange factor 3 (Homo sapiens)                        inactive
3         Nc1ccc(SC(F)(F)F)cc1C(=O)c1ccccc1  Rap guanine nucleotide exchange factor 3 (Homo sapiens)  -9.64% [at 30.8 µM] (inactive)
4  Cc1cccc(C)c1-c1ccc(CN2C(CC(C)C)C(=O)N(Cc3cn(CCO)nn3)CCS2(=O)=O)cc1 (stereo not drawn)  Rap guanine nucleotide exchange factor 3 (Homo sapiens)   9.55% [at 30.8 µM] (inactive)
5             N#Cc1ccc(CSc2nc(N)cc(N)n2)cc1  Rap guanine nucleotide exchange factor 3 (Homo sapiens)                        inactive

Please examine the following record next.
Quick note, activity change, negative = inhibition for COc1ccc(C2CC(=O)c3ccccc3O2)cc1 (stereo not drawn) landed at inactive

---

- subject of test: Rap guanine nucleotide exchange factor 3 (Homo sapiens)
- procedure text: Confirmatory qHTS for agonist of cAMP-regulated guanine nucleotide exchange factor 3 (EPAC1) (AID 1645881); also: nearly all actives have a fitted effect of over 75% in size;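 as to activation: EPAC1 catalysed release of BODIPY-GDP from Rap1B seen as fluorescence loss; 100% = effect of cAMP agonist control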
- measurement conditions: EPAC1 Rap1B BODIPY-GDP exchange fluorescence; series mostly up to 154 µM
Results filed as inconclusive are left out. The source made the active and inactive calls. The call rests on the fitted dose curve; in most records, active means well fitted activation curve with a large enough effect; inconclusive means small, poorly fitted or top-dose-only effect; inactive means no such curve, though single readings can be large or run the other way.
Use one of these outcomes when replying: class 1 = active, class 0 = inactive

Reference set (2 entries):
> print(dat)
                                   molecule  discrete.label
1  O=C1CN(C(=O)c2c(F)cccc2Cl)C(c2ccc(F)cc2)c2cc(Br)ccc2N1 (stereo not given)         class 0
2  CCc1ccc[n+](-c2[nH]c(=O)sc2/C=N/NC([S-])=Nc2ccccc2)c1         class 0

Which outcome did this test record for the molecule `CC(C)(C)c1cc(NCCCn2ccnc2)n2ncc(-c3ccccc3)c2n1` ?
class 0

Which outcome did this test record for the molecule CCOc1ccc(C(=O)N2CC(=O)Nc3ccc(C)cc3C2c2ccc(F)cc2)cc1OCC (stereo not given) ?
class 0

Which outcome did this test record for the molecule `Nc1ncnc2c1nc(Sc1ccc(Cl)cc1)n2[C@@H]1O[C@@H]2COP(=O)(O)O[C@H]2[C@H]1O` ?
class 1

---

- subject of test: Thyroid hormone receptor beta (Homo sapiens) (UniProt P10828)
- Sequence (P10828 whole entry, looked up): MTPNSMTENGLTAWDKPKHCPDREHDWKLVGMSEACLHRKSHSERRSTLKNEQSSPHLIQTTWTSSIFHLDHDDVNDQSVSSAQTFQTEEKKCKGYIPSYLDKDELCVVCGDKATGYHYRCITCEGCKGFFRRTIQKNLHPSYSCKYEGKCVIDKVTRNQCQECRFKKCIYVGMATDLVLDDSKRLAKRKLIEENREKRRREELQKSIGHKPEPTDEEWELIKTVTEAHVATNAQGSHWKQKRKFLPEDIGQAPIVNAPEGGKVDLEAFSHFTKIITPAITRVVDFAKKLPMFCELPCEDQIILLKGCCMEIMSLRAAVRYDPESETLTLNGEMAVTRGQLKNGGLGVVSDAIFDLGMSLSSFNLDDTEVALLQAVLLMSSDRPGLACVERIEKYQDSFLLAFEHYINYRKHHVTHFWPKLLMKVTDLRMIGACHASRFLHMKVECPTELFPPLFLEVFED
- procedure text: qHTS assay for small molecule agonists of thyroid hormone receptor beta signaling (AID 588545);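 also: 0% = DMSO only and 100% = 10 nM T3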
- measurement conditions: TR-UAS-bla GripTite HEK 293, beta-lactamase ratio, agonist mode, 18 h, percent of T3 response, DMSO as zero; series mostly up to 76.7 µM
Results filed as inconclusive are left out. The source made the active and inactive calls. Calls come from the whole dose curve.
reported property: outcome

Check out these entries, answers already filled in.
> print(dat)
                                   compound                           subject.of.test  reported.property  data.value
1   O=C(O)c1ccccc1C(c1ccc(O)cc1)c1ccc(O)cc1  Thyroid hormone receptor beta (Homo sapiens) (UniProt P10828)            outcome    inactive
2  O=C(O)CC(C(=O)O)C(CC(=O)O)C(=O)O (stereo unspecified)  Thyroid hormone receptor beta (Homo sapiens) (UniProt P10828)            outcome    inactive
3                        O=S(=O)(O)c1ccccc1  Thyroid hormone receptor beta (Homo sapiens) (UniProt P10828)            outcome    inactive
4                     Nc1ccc(S(=O)(=O)O)cc1  Thyroid hormone receptor beta (Homo sapiens) (UniProt P10828)            outcome    inactive

Value sought: outcome, system Thyroid hormone receptor beta (Homo sapiens) (UniProt P10828), item `C=CCc1ccc(OC)c(OC)c1` . Result: inactive

Value sought: outcome, system Thyroid hormone receptor beta (Homo sapiens) (UniProt P10828), item `C=CCOC(=O)c1ccccc1C(=O)OCC=C` . Result: inactive

Value sought: outcome, system Thyroid hormone receptor beta (Homo sapiens) (UniProt P10828), item `CCO` . Result: inactive

Value sought: outcome, system Thyroid hormone receptor beta (Homo sapiens) (UniProt P10828), item `Cc1c(N=C=O)cccc1N=C=O` . Result: inactive

Value sought: outcome, system Thyroid hormone receptor beta (Homo sapiens) (UniProt P10828), item CCC(O)OC(O)CC (stereo unspecified) . Result: inactive

Value sought: outcome, system Thyroid hormone receptor beta (Homo sapiens) (UniProt P10828), item `CCCCCCCCCCCC(=O)O` . Result: inactive

Value sought: outcome, system Thyroid hormone receptor beta (Homo sapiens) (UniProt P10828), item `COc1ccc2nc(N)sc2c1` . Result: inactive

Value sought: outcome, system Thyroid hormone receptor beta (Homo sapiens) (UniProt P10828), item `COC(=O)c1ccc(C)cc1` . Result: inactive

Value sought: outcome, system Thyroid hormone receptor beta (Homo sapiens) (UniProt P10828), item `COC(=O)CCCCC(=O)OC` . Result: inactive

Value sought: outcome, system Thyroid hormone receptor beta (Homo sapiens) (UniProt P10828), item `CCCCCCCCO` . Result: inactive

Value sought: outcome, system Thyroid hormone receptor beta (Homo sapiens) (UniProt P10828), item `Cc1ccc([N+](=O)[O-])cc1N` . Result: inactive

Value sought: outcome, system Thyroid hormone receptor beta (Homo sapiens) (UniProt P10828), item `CC(=O)OC/C=C(\C)CCC=C(C)C` . Result: inactive
